experiment summary: gradient 5% acetonitrile 3 min, to 50% in 2 min, to 85% in 15 min, held 3 min, 100 µL/min
measurement conditions: column: Zorbax Extend-C18 2.1 x 50 mm; eluents: water / acetonitrile, 0.1% formic acid
observable: RP-LC retention time (s)
Enter your answer as a number in s; do not include the unit.

Some solved cases for reference:
compound	measured
CC(=O)c1ccc(NC(=O)c2nc3nc(C)cc(C(F)F)n3n2)cc1	722
Cc1ccccc1NC(=O)Cn1nc2cc(-c3ccccn3)nc(C)n2c1=O	746
O=C(c1cnc[nH]1)N1CC(F)(F)C[C@H]1c1nc(C2CC2)no1	630
Cc1cc(-c2nnc(C3CCC3)o2)c(C)n1CC(=O)NCc1cc(F)cc(F)c1	864
CCOC(=O)c1ccc(NC(=O)CSc2cc(N3CCC(C(=O)NC4CC4)CC3)ncn2)cc1	748

# context switch: different compound, same RP-LC retention time
**Query** Return the recorded RP-LC retention time value; entry: Cc1noc(-c2nn(C)c3c2CN(C(=O)NC(C)C)CC3)n1
**Result** 640

###

experiment summary: gradient 5% acetonitrile 3 min, to 50% in 2 min, to 85% in 15 min, held 3 min, 100 µL/min
measurement conditions: column: Zorbax Extend-C18 2.1 x 50 mm; eluents: water / acetonitrile, 0.1% formic acid
observable: RP-LC retention time (s)
Return type: number; implicit unit s.

Worked examples follow.
compound	unit label	measured
CCOC(=O)Cc1csc(NC(=O)Cc2cc(-c3cc4ccccc4o3)on2)n1	s	891
CCOc1cccc(-c2noc(CN3C(=O)COc4cc(Cl)ccc43)n2)c1	s	1180
O=C1COc2cc(S(=O)(=O)N3CCC(C(=O)NCC4CCCO4)CC3)c(Cl)cc2N1 (centres undefined)	s	653
CC(C)CCN(Cc1ccco1)C(=O)Cn1nc2n(c1=O)CCC(N)CC2 (centres undefined)	s	633
O=C(Nc1ccc2c(c1)OCCO2)N1CCCC(CN2CCOCC2)CC1 (centres undefined)	s	590

**Query** Please report the measured RP-LC retention time for Cc1ccc(NC(=O)Cn2nc(C)cc2C(=O)Nc2cc(C)ccc2C)cc1
**Result** 981

**Query** Recall and state the measured RP-LC retention time for O=C(CCC1CCCN(S(=O)(=O)c2ccccc2F)C1)NCc1cccs1 (centres undefined) .
**Result** 908

**Query** Note down RP-LC retention time recorded for Cn1cnnc1C1CCCCN1C(=O)COc1ccc(F)c(F)c1 (centres undefined)
**Result** 682

**Query** Item CCOc1ccc(NC(=O)NCC2CCOCC2)cc1 : provide RP-LC retention time
**Result** 685

**Query** Name the recorded RP-LC retention time of the compound listed here: Cc1oc(C2CCN(C(=O)Nc3ccc(Cl)cc3F)CC2)nc1C(=O)N(C)C
**Result** 714

**Query** Using the record for COc1ccc(C2(C(=O)N3CCCC(CO)CCNC(=O)CC3)CC2)cc1 (centres undefined) , state its measured RP-LC retention time.
**Result** 622

**Query** Please report the measured RP-LC retention time for COc1cccc(CNC(=O)C2CCCN(c3nccnc3Sc3ccccc3)C2)c1 (centres undefined)
**Result** 1100

**Query** Fill in reported RP-LC retention time for this entry: Cc1ncc2c(n1)CCN(C(=O)c1ccc(Cl)cc1)C2
**Result** 627

Where these numbers come from: the METLIN SMRT retention time set (Domingo-Almenara et al. 2019)
